Origin of measurements: the Deep4Chem optical property database

Assay: solvent given as SMILES
Conditions: in CC#N
// map emission maximum onto a label; ranges low bracket: < 400 nm; middle bracket: ≥ 400 nm and < 500 nm; high bracket: ≥ 500 nm

compound: O=S1(=O)c2ccccc2-c2c1c1ccccc1p2-c1ccccc1 (stereo not given)
group.label: middle bracket
--
compound: CC1=C(Cc2ccccc2)C(C)=[N+]2C1=C(C)c1c(C)c(-c3csc(N4CCOCC4)n3)c(C)n1[B-]2(F)F
group.label: high bracket
--
compound: CCOC(=O)COc1ccc(C(c2c(C)[nH]c3ccccc23)c2c(C)[nH]c3ccccc23)cc1
group.label: low bracket
--
compound: O=C1c2ccccc2C2=Cc3ccccc3B(O)N12
group.label: middle bracket
--
compound: N#Cc1cccc(-c2pc3ccccc3s2)c1 (stereo not given)
group.label: middle bracket
--
compound: N#Cc1ccc(-c2ccc3c(c2)c2cc(-c4ccc(C#N)cc4)ccc2c2c3nc(-c3ccc(-c4ccc(N(c5ccccc5)c5ccccc5)cc4)cc3)n2-c2ccccc2)cc1
group.label: high bracket
--
compound: COc1cccc(C2=c3c(c4ccc(C(C)(C)C)cc4c4cc(C(C)(C)C)ccc34)=[N+]3C2=C(c2ccccc2)c2c(-c4cccc(OC)c4)c4c5ccc(C(C)(C)C)cc5c5cc(C(C)(C)C)ccc5c4n2[B-]3(F)F)c1
group.label: high bracket
--
compound: COc1ccc2cc(-c3ccc([N+](=O)[O-])cc3)ccc2c1
group.label: high bracket
--
compound: COC(=O)c1cc(=O)n(C)c2cc(-c3ccc(N4CCN(C)CC4)cc3)sc12
group.label: high bracket
--
compound: COC(=O)C[C@H](Cc1c[nH]c2ccccc12)NC(=O)[C@H](CC(=O)N[C@@H](CC1=CCc2ccccc21)C(=O)OC)NC(=O)OC(C)(C)C
group.label: low bracket
--
compound: CN(C)c1ccc2nc3c(cc2c1)c(-c1ccccc1)nn3-c1ccccc1
group.label: high bracket
--
compound: COc1ccc2n1[B-](F)(F)[N+]1=C(SC#N)C=CC1=C2c1ccccc1
group.label: high bracket
--
compound: CCOC(=O)COc1ccc(/C=C/C2=C3c4ccccc4C(c4[nH]c(C)cc4C)=[N+]3[B-](F)(F)n3c(/C=C/c4ccc(OCC(=O)OCC)cc4)cc(C)c32)cc1
group.label: high bracket
--
compound: COc1ccc(/C=C(\C#N)c2nc(-c3ccc(Cl)cc3)cs2)cc1
group.label: middle bracket
--
compound: F[B-]1(F)OC(c2ccc(C(F)(F)F)cc2)=Cc2cc(Cl)nc[n+]21
group.label: middle bracket
--
compound: CCOC(=O)COc1ccccc1C(c1c(C)[nH]c2ccccc12)c1c(C)[nH]c2ccccc12
group.label: low bracket
--
compound: CN1c2ccccc2CCc2ccccc21
group.label: low bracket
--
compound: COc1cc(-c2nc3c4cccnc4c4ncccc4c3[nH]2)c(OC)cc1/C=C/c1nc2ccccc2[nH]1
group.label: middle bracket
--
compound: CN1C(=O)/C(=C/c2ccncc2)N=C1/C=C/c1ccccc1
group.label: high bracket
--
compound: COC(=O)C(NC(=O)OC(C)(C)C)c1ccc2oc(-c3ccc(F)cc3)nc2c1 (stereo not given)
group.label: low bracket
--
compound: Cc1sc(Cl)cc1-c1nc(-c2ccccc2)[nH]c1-c1cc(Cl)sc1C
group.label: low bracket
--
compound: COc1ccc2cc3c(C)cc(=O)oc3cc2c1
group.label: middle bracket
--
compound: N#CSC1=CC2=C(c3c(Cl)cccc3Cl)c3cc(SC#N)c(NCc4ccccc4)n3[B-](F)(F)[N+]2=C1NCc1ccccc1
group.label: high bracket
--
compound: Cc1cc(N(C)C)cc(C)c1/C=C/C=C/c1ccc(C#N)cc1
group.label: high bracket
